- Tested on: S. pyogenes M
- run-description: MIC by broth dilution (NCCLS M7-A2)
- Type: cell-based
- experimental-setup: 90% growth inhibition
Below, each of the compounds is paired with its reported MIK value.

smiles-code | target | MIK, µg/mL
CC[C@H]1OC(=O)[C@H](C)[C@@H](O[C@H]2C[C@@](C)(OC)[C@@H](O)[C@H](C)O2)[C@H](C)[C@@H](O[C@@H]2O[C@H](C)C[C@H](N(C)C)[C@H]2O)[C@](C)(O)C[C@@H](C)CN(CCCNC(=O)N(CCC#N)c2ccc3ccccc3c2)[C@H](C)[C@@H](O)[C@]1(C)O | S. pyogenes M | 8
CC[C@H]1OC(=O)[C@H](C)[C@@H](O[C@H]2C[C@@](C)(OC)[C@@H](O)[C@H](C)O2)[C@H](C)[C@@H](O[C@@H]2O[C@H](C)C[C@H](N(C)C)[C@H]2O)[C@](C)(O)C[C@@H](C)CN(CCCNC(=O)NCc2ccccc2)[C@H](C)[C@@H](O)[C@]1(C)O | S. pyogenes M | 8

---

- Tested on: S. pyogenes M
- run-description: MIC by broth dilution (NCCLS M7-A2)
- Type: cell-based
- experimental-setup: 90% growth inhibition
Here, each record is paired with measured MIK data.

compound | measurement-unit | MIK
CC[C@H]1OC(=O)[C@H](C)[C@@H](O[C@H]2C[C@@](C)(OC)[C@@H](O)[C@H](C)O2)[C@H](C)[C@@H](O[C@@H]2O[C@H](C)C[C@H](N(C)C)[C@H]2O)[C@](C)(O)C[C@@H](C)C(=O)[C@H](C)[C@@H](O)[C@]1(C)O [Er, erythromycin A, reference compound] | µg/mL | 8
CC[C@H]1OC(=O)[C@H](C)[C@@H](O[C@H]2C[C@@](C)(OC)[C@@H](O)[C@H](C)O2)[C@H](C)[C@@H](O[C@@H]2O[C@H](C)C[C@H](N(C)C)[C@H]2O)[C@](C)(O)C[C@@H](C)CN(CCCNC(=O)Nc2ccccc2C(F)(F)F)[C@H](C)[C@@H](O)[C@]1(C)O | µg/mL | 32

---

- Tested on: E. faecalis ATCC 29212
- run-description: MIC by broth dilution (NCCLS M7-A2)
- Format: cell-based
- experimental-setup: 90% growth inhibition

smiles-code | MIK (µg/mL)
CC[C@H]1OC(=O)[C@H](C)[C@@H](O[C@H]2C[C@@](C)(OC)[C@@H](O)[C@H](C)O2)[C@H](C)[C@@H](O[C@@H]2O[C@H](C)C[C@H](N(C)C)[C@H]2O)[C@](C)(O)C[C@@H](C)CN(CCCNC(=O)NCc2ccccc2)[C@H](C)[C@@H](O)[C@]1(C)O | 16
CC[C@H]1OC(=O)[C@H](C)[C@@H](O[C@H]2C[C@@](C)(OC)[C@@H](O)[C@H](C)O2)[C@H](C)[C@@H](O[C@@H]2O[C@H](C)C[C@H](N(C)C)[C@H]2O)[C@](C)(O)C[C@@H](C)CN(CCCNC(=O)N(CCC#N)CCCc2ccccc2)[C@H](C)[C@@H](O)[C@]1(C)O | 16

---

- System: S. pyogenes
- run-description: MIC by broth dilution (NCCLS M7-A2)
- Assay type: cell-based
- experimental-setup: 90% growth inhibition

smiles-code | MIK
CC[C@H]1OC(=O)[C@H](C)[C@@H](O[C@H]2C[C@@](C)(OC)[C@@H](O)[C@H](C)O2)[C@H](C)[C@@H](O[C@@H]2O[C@H](C)C[C@H](N(C)C)[C@H]2O)[C@](C)(O)C[C@@H](C)CN(CCCNC(=O)Nc2ccc3ccccc3c2)[C@H](C)[C@@H](O)[C@]1(C)O | ≦0.125 μg/ml
CC[C@H]1OC(=O)[C@H](C)[C@@H](O[C@H]2C[C@@](C)(OC)[C@@H](O)[C@H](C)O2)[C@H](C)[C@@H](O[C@@H]2O[C@H](C)C[C@H](N(C)C)[C@H]2O)[C@](C)(O)C[C@@H](C)CN(CCCNC(=O)NC(C)C)[C@H](C)[C@@H](O)[C@]1(C)O | ≦0.125 μg/ml

---

This listing pairs molecules with measured MIK.
- System: E. faecalis ATCC 29212
- run-description: MIC by broth dilution (NCCLS M7-A2)
- Assay type: cell-based
- experimental-setup: 90% growth inhibition

molecule | target | measurement-unit | MIK
CC[C@H]1OC(=O)[C@H](C)[C@@H](O[C@H]2C[C@@](C)(OC)[C@@H](O)[C@H](C)O2)[C@H](C)[C@@H](O[C@@H]2O[C@H](C)C[C@H](N(C)C)[C@H]2O)[C@](C)(O)C[C@@H](C)CN(CCCNC(=S)NCCCc2ccccc2)[C@H](C)[C@@H](O)[C@]1(C)O [Example 7] | E. faecalis ATCC 29212 | µg/mL | 16
CC[C@H]1OC(=O)[C@H](C)[C@@H](O[C@H]2C[C@@](C)(OC)[C@@H](O)[C@H](C)O2)[C@H](C)[C@@H](O[C@@H]2O[C@H](C)C[C@H](N(C)C)[C@H]2O)[C@](C)(O)C[C@@H](C)CN(CCCNC(=O)N(CCC#N)c2cccc3ccccc23)[C@H](C)[C@@H](O)[C@]1(C)O [Example 28] | E. faecalis ATCC 29212 | µg/mL | 4
CCC1OC(=O)C(C)C(OC2CC(C)(OC)C(O)C(C)O2)C(C)C(OC2OC(C)CC(N(C)C)C2O)C(C)(O)CC(C)CN(CCCNC(=S)N(CCC#N)Cc2ccccc2)C(C)C(O)C1(C)O (stereo not drawn) [Example 30] | E. faecalis ATCC 29212 | µg/mL | 8

---

Some molecules, each annotated with its measured MIK.
- Test system: S. pyogenes iMLS
- run-description: MIC by broth dilution (NCCLS M7-A2)
- Format: cell-based
- experimental-setup: 90% growth inhibition

molecule | target | measurement-unit | MIK
CC[C@H]1OC(=O)[C@H](C)[C@@H](O[C@H]2C[C@@](C)(OC)[C@@H](O)[C@H](C)O2)[C@H](C)[C@@H](O[C@@H]2O[C@H](C)C[C@H](N(C)C)[C@H]2O)[C@](C)(O)C[C@@H](C)CN(CCCNC(=O)NC(C)c2cccc3ccccc23)[C@H](C)[C@@H](O)[C@]1(C)O (stereo partly shown) | S. pyogenes iMLS | µg/mL | 8
CCC1OC(=O)C(C)C(OC2CC(C)(OC)C(O)C(C)O2)C(C)C(OC2OC(C)CC(N(C)C)C2O)C(C)(O)CC(C)CN(CCCNC(=S)N(CCC#N)Cc2ccccc2)C(C)C(O)C1(C)O (stereo not shown) | S. pyogenes iMLS | µg/mL | 2
CC[C@H]1OC(=O)[C@H](C)[C@@H](O[C@H]2C[C@@](C)(OC)[C@@H](O)[C@H](C)O2)[C@H](C)[C@@H](O[C@@H]2O[C@H](C)C[C@H](N(C)C)[C@H]2O)[C@](C)(O)C[C@@H](C)CN(CCCNC(=O)N(CCC#N)c2ccc3ccccc3c2)[C@H](C)[C@@H](O)[C@]1(C)O | S. pyogenes iMLS | µg/mL | 2
CC[C@H]1OC(=O)[C@H](C)[C@@H](O[C@H]2C[C@@](C)(OC)[C@@H](O)[C@H](C)O2)[C@H](C)[C@@H](O[C@@H]2O[C@H](C)C[C@H](N(C)C)[C@H]2O)[C@](C)(O)C[C@@H](C)CN(CCCNC(=S)N(CCC#N)c2cccc3ccccc23)[C@H](C)[C@@H](O)[C@]1(C)O | S. pyogenes iMLS | µg/mL | 4

---

- Tested on: E. faecalis ATCC 29212
- run-description: MIC by broth dilution (NCCLS M7-A2)
- Assay type: cell-based
- experimental-setup: 90% growth inhibition
- Source text: MIC levels for all compound were determinated on panel of susceptible, and resistant Gram positive bacterial strains (S. aureus, S. pneumoniae and S. pyogenes) and on Gram negative strains (E. coli, H. influenzae, […], M. catarrhalis).
readout-label: MIK (µg/mL)

molecule | comparison-operator | reported-measurement
CC[C@H]1OC(=O)[C@H](C)[C@@H](O[C@H]2C[C@@](C)(OC)[C@@H](O)[C@H](C)O2)[C@H](C)[C@@H](O[C@@H]2O[C@H](C)C[C@H](N(C)C)[C@H]2O)[C@](C)(O)C[C@@H](C)CN(CCCNC(=O)Nc2ccc3ccccc3c2)[C@H](C)[C@@H](O)[C@]1(C)O | = | 8
CCOC(=O)CNC(=O)NCCCN1CC(C)CC(C)(O)C(OC2OC(C)CC(N(C)C)C2O)C(C)C(OC2CC(C)(OC)C(O)C(C)O2)C(C)C(=O)OC(CC)C(C)(O)C(O)C1C (stereo not shown) | > | 64
CC[C@H]1OC(=O)[C@H](C)[C@@H](O[C@H]2C[C@@](C)(OC)[C@@H](O)[C@H](C)O2)[C@H](C)[C@@H](O[C@@H]2O[C@H](C)C[C@H](N(C)C)[C@H]2O)[C@](C)(O)C[C@@H](C)CN(CCCNC(=S)NCc2ccccc2)[C@H](C)[C@@H](O)[C@]1(C)O | = | 8
CC[C@H]1OC(=O)[C@H](C)[C@@H](O[C@H]2C[C@@](C)(OC)[C@@H](O)[C@H](C)O2)[C@H](C)[C@@H](O[C@@H]2O[C@H](C)C[C@H](N(C)C)[C@H]2O)[C@](C)(O)C[C@@H](C)CN(CCCNC(=S)N(CCC#N)c2cccc3ccccc23)[C@H](C)[C@@H](O)[C@]1(C)O | = | 4
CC[C@H]1OC(=O)[C@H](C)[C@@H](O[C@H]2C[C@@](C)(OC)[C@@H](O)[C@H](C)O2)[C@H](C)[C@@H](O[C@@H]2O[C@H](C)C[C@H](N(C)C)[C@H]2O)[C@](C)(O)C[C@@H](C)CN(CCCNC(=O)Nc2cc(OC)c(OC)c(OC)c2)[C@H](C)[C@@H](O)[C@]1(C)O | > | 64
CC[C@H]1OC(=O)[C@H](C)[C@@H](O[C@H]2C[C@@](C)(OC)[C@@H](O)[C@H](C)O2)[C@H](C)[C@@H](O[C@@H]2O[C@H](C)C[C@H](N(C)C)[C@H]2O)[C@](C)(O)C[C@@H](C)CN(CCCNC(=O)NCCc2ccccc2)[C@H](C)[C@@H](O)[C@]1(C)O | = | 16
CC[C@H]1OC(=O)[C@H](C)[C@@H](O[C@H]2C[C@@](C)(OC)[C@@H](O)[C@H](C)O2)[C@H](C)[C@@H](O[C@@H]2O[C@H](C)C[C@H](N(C)C)[C@H]2O)[C@](C)(O)C[C@@H](C)CN(CCCNC(=O)NC(C)c2cccc3ccccc23)[C@H](C)[C@@H](O)[C@]1(C)O (stereo partly shown) | = | 16
